Overview of reported inhibition across a group of compounds:
molecular target: Dual specificity protein kinase CLK3 (Homo sapiens) (UniProt P49761); conditions: at 1 µM;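 also: each value is the mean inhibition of CLK3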
Sequence (P49761 whole entry, looked up): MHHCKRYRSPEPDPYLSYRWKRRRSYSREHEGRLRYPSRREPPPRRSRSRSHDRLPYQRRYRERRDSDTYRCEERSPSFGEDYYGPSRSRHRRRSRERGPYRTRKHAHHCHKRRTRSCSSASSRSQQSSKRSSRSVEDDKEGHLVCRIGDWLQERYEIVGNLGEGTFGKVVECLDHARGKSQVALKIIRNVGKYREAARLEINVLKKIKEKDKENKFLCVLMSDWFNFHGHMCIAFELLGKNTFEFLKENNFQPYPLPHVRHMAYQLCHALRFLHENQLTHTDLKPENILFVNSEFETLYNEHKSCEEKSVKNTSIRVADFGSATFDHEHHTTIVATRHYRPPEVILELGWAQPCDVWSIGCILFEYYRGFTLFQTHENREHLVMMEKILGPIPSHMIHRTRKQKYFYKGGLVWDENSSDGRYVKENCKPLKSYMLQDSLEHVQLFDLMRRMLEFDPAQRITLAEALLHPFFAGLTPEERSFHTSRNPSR
reported property: inhibition (%)

INSERT INTO results (smiles_str, study_system, reported_result) VALUES
  ('NC(=O)c1cccc(Nc2nccc(Nc3cccc(F)c3)n2)c1', 'Dual specificity protein kinase CLK3 (Homo sapiens) (UniProt P49761)', 2.19),
  ('CN1CCN(C(=O)c2ccc(NC(=O)Nc3ccc(N(C)c4ccnc(Nc5ccc(CS(C)(=O)=O)cc5)n4)cc3)cc2)CC1', 'Dual specificity protein kinase CLK3 (Homo sapiens) (UniProt P49761)', -0.46),
  ('Cc1ccc(C(=O)NC2CC2)cc1-c1ccc2[nH]ncc2c1', 'Dual specificity protein kinase CLK3 (Homo sapiens) (UniProt P49761)', 0.04),
  ('Cc1cc(O)cc(C)c1/C=C/c1cncc(C(=O)N(C)C)c1', 'Dual specificity protein kinase CLK3 (Homo sapiens) (UniProt P49761)', 1.59),
  ('Cc1cc(-c2ccccn2)cc(C)c1/C=C/c1cncc(-c2nn[nH]n2)c1', 'Dual specificity protein kinase CLK3 (Homo sapiens) (UniProt P49761)', 0.95),
  ('COC(=O)c1cncc(/C=C/c2c(C)cc(O)cc2C)c1', 'Dual specificity protein kinase CLK3 (Homo sapiens) (UniProt P49761)', 3.16),
  ('Cc1nc(-c2ccccc2)n2nc(NCCCN3CCOCC3)ncc12', 'Dual specificity protein kinase CLK3 (Homo sapiens) (UniProt P49761)', 1.74),
  ('CCS(=O)(=O)c1ccc(OC)c(Nc2ncc(-c3cccc(OC)c3)o2)c1', 'Dual specificity protein kinase CLK3 (Homo sapiens) (UniProt P49761)', 13.2),
  ('CC(C)c1ccc2c(c1)NC(=O)/C2=N/Nc1ccc(S(N)(=O)=O)cc1', 'Dual specificity protein kinase CLK3 (Homo sapiens) (UniProt P49761)', -0.08),
  ('NS(=O)(=O)c1ccc(Nc2cc(-c3cccc(O)c3)n[nH]2)cc1', 'Dual specificity protein kinase CLK3 (Homo sapiens) (UniProt P49761)', 2.62),
  ('CCS(=O)(=O)c1ccc(OC)c(Nc2nccc(N(C)c3ccc4c(C)n[nH]c4c3)n2)c1', 'Dual specificity protein kinase CLK3 (Homo sapiens) (UniProt P49761)', 2.41),
  ('NC(=O)c1sc(-n2cnc3ccccc32)cc1OCc1ccccc1Br', 'Dual specificity protein kinase CLK3 (Homo sapiens) (UniProt P49761)', 0.92),
  ('COc1cccc(-n2ncc3c(N/N=C/c4ccc(C)cc4)ncnc32)c1', 'Dual specificity protein kinase CLK3 (Homo sapiens) (UniProt P49761)', 1.46),
  ('CS(=O)(=O)CCNCc1nc(-c2ccc3ncnc(Nc4ccc(OCc5cccc(C(F)(F)F)c5)cc4)c3c2)cs1', 'Dual specificity protein kinase CLK3 (Homo sapiens) (UniProt P49761)', -1.22),
  ('Nc1nccc(-c2c(-c3ccc(F)cc3)ncn2CCCN2CCOCC2)n1', 'Dual specificity protein kinase CLK3 (Homo sapiens) (UniProt P49761)', 1.24),
  ('Cc1ccc2c(c1)/C(=N/Nc1ccc(S(N)(=O)=O)cc1)C(=O)N2', 'Dual specificity protein kinase CLK3 (Homo sapiens) (UniProt P49761)', -0.91),
  ('[O-][S+]1CCN(Cc2ccc(-c3ccc4ncnc(Nc5ccc(OCc6ccccc6)c(Cl)c5)c4c3)o2)CC1', 'Dual specificity protein kinase CLK3 (Homo sapiens) (UniProt P49761)', -0.64),
  ('COC(=O)Nc1nc2cc(Oc3ccc(NC(=O)Nc4cccc(Br)c4)cc3)ccc2[nH]1', 'Dual specificity protein kinase CLK3 (Homo sapiens) (UniProt P49761)', 1.74),
  ('N#Cc1c(NC(=O)c2ccccc2F)sc2c1CCCC2', 'Dual specificity protein kinase CLK3 (Homo sapiens) (UniProt P49761)', -0.09),
  ('CN(C)CCCn1c(-c2nonc2N)nc2cnccc21', 'Dual specificity protein kinase CLK3 (Homo sapiens) (UniProt P49761)', 1.96),
  ('CN(C)C(=O)O[C@@H]1CN[C@@H](C#Cc2cc3ncnc(Nc4ccc(OCc5cccc(F)c5)c(Cl)c4)c3s2)C1', 'Dual specificity protein kinase CLK3 (Homo sapiens) (UniProt P49761)', 0.69),
  ('COc1cc2ncnc(Nc3ccc(C)c(O)c3)c2cc1OC', 'Dual specificity protein kinase CLK3 (Homo sapiens) (UniProt P49761)', 2.38),
  ('COc1ccc(-c2nn3ncccc3c2-c2ccnc(Nc3cccc(C(F)(F)F)c3)n2)cc1', 'Dual specificity protein kinase CLK3 (Homo sapiens) (UniProt P49761)', 0.95),
  ('O=S(=O)(CCOCc1ccc(-c2ccc3ncnc(Nc4ccc(OCc5cccc(F)c5)c(Cl)c4)c3c2)o1)c1ccccc1', 'Dual specificity protein kinase CLK3 (Homo sapiens) (UniProt P49761)', 0.14),
  ('Cc1ccc(NC(=O)CC2CC2)cc1-c1ccc(C(=O)NCC2CC2)cc1', 'Dual specificity protein kinase CLK3 (Homo sapiens) (UniProt P49761)', 1.83),
  ('NS(=O)(=O)c1cccc(Nc2cc(-c3ccc(F)cc3)n[nH]2)c1', 'Dual specificity protein kinase CLK3 (Homo sapiens) (UniProt P49761)', 2.68),
  ('COc1cccc(-n2ncc3c(N/N=C/c4ccc(S(C)(=O)=O)cc4)ncnc32)c1', 'Dual specificity protein kinase CLK3 (Homo sapiens) (UniProt P49761)', 13.5),
  ('CCn1c(-c2nonc2N)nc2c(C#CC(C)(C)O)nc(OCCNC)cc21', 'Dual specificity protein kinase CLK3 (Homo sapiens) (UniProt P49761)', 0.43),
  ('Cc1ccc2c(-c3ccnc(Nc4cccc(C(F)(F)F)c4)n3)c(-c3ccccc3)nn2n1', 'Dual specificity protein kinase CLK3 (Homo sapiens) (UniProt P49761)', 2.3),
  ('CS(=O)(=O)Nc1cccc(-c2ccc3c(NC(=O)C4CC4)n[nH]c3c2)c1', 'Dual specificity protein kinase CLK3 (Homo sapiens) (UniProt P49761)', 0.41),
  ('OCc1ccc(-c2nc(-c3ccccn3)c(-c3ccc4c(c3)OCO4)[nH]2)cc1', 'Dual specificity protein kinase CLK3 (Homo sapiens) (UniProt P49761)', 2.95),
  ('FC(F)(F)c1ccc(-c2nn3ncccc3c2-c2ccnc(Nc3ccc4c(c3)OCCO4)n2)cc1', 'Dual specificity protein kinase CLK3 (Homo sapiens) (UniProt P49761)', 5.27),
  ('CN(c1ccc(NC(=O)Nc2ccc(OC(F)(F)F)cc2)cc1)c1ccnc(Nc2cccc(S(N)(=O)=O)c2)n1', 'Dual specificity protein kinase CLK3 (Homo sapiens) (UniProt P49761)', 1.99),
  ('Nc1nccc(-c2c(-c3ccc(F)cc3)nn3cc(C(F)(F)F)ccc23)n1', 'Dual specificity protein kinase CLK3 (Homo sapiens) (UniProt P49761)', 0.23),
  ('CC(C)c1ccc(Nc2nccc(-c3cnn4ncccc34)n2)cc1', 'Dual specificity protein kinase CLK3 (Homo sapiens) (UniProt P49761)', 14),
  ('Nc1ccc(C#Cc2cncnc2Nc2ccc(OCc3cccc(F)c3)c(Cl)c2)cc1', 'Dual specificity protein kinase CLK3 (Homo sapiens) (UniProt P49761)', 0.7);
